test_readout: melting point

| compound | melting point |
| --- | --- |
| COCCOCC(=O)Nc1cccc2c1C1(COc3cc4c(cc31)OCCO4)C(=O)N2C (stereo not shown) | 122 to 123 °C |

Query :: Kindly indicate its recorded melting point. Item: CN1C(=O)C2(COc3cc4c(cc32)OCCO4)c2c(-c3cn[nH]c3)cccc21 (stereo not shown)
Result :: 250 to 251 °C

Query :: Kindly indicate its recorded melting point. Item: CCCCCCN(C)C(=O)c1cccc(CN2C(=O)C3(COc4cc5c(cc43)CCO5)c3ccccc32)c1 (stereo not shown)
Result :: 73 to 74 °C

Query :: Kindly indicate its recorded melting point. Item: COc1cc2c(cc1C)C1(CO2)C(=O)Nc2ccccc21 (stereo not shown)
Result :: > 250 °C

Origin of measurements: patent US8263606B2
